Data origin: patent US10870638B2

Tested on: wild oat (Avena fatua L.)
Assay: Test Example 1: foliar treatment, growth inhibition rate on 14th day
Assay type: in vivo
Details: active ingredient amount 31 g/ha, 14th day after application, visual, 0 = non-treated, 100 = complete kill
Measured attribute: Growth inhibition rate (%) Wild oat
Provide only the numeric value, understood in %.

Can you share its Growth inhibition rate (%) Wild oat? I mean this molecule: "Cc1ccc(Oc2cnc3cc(Cl)ccc3n2)cc1-c1c(OCOCCCl)c(C)nn(C)c1=O" 95

----------
Tested on: barnyardgrass (Echinochloa crus-qalli L.)
Test: Test Example 1: foliar treatment, growth inhibition rate on 14th day
Format: in vivo
Conditions: active ingredient amount 31 g/ha, 14th day after application
Measured attribute: Growth inhibition rate (%) Barnyardgrass
Provide only the numeric value, understood in %.

- CC(=O)Oc1c(C)nn(C)c(=O)c1-c1cc(Oc2ncc(C(F)(F)F)cc2C(F)(F)F)ccc1C [Compound 2-116]: 100
- CC(=O)Oc1c(C)nn(C)c(=O)c1-c1cc(Oc2ncc(Br)cc2Cl)ccc1C [Compound 2-135]: 93

Can you share its Growth inhibition rate (%) Barnyardgrass? I mean this compound: CC(=O)Oc1c(C)nn(C)c(=O)c1-c1cc(Oc2nccc(C(F)(F)F)c2Cl)ccc1C [Compound 2-131] 85

Can you share its Growth inhibition rate (%) Barnyardgrass? I mean this compound: Cc1ccc(Oc2nc3cc(Cl)ccc3o2)cc1-c1c(O)c(C)nn(C)c1=O [Compound 2-105] 90

----------
Tested on: corn (Zea mays L.)
Test: Test Example 1: foliar treatment, growth inhibition rate on 14th day
Assay type: in vivo
Settings: active ingredient amount 31 g/ha, 14th day after application
Measured attribute: Growth inhibition rate (%) Corn
Provide only the numeric value, understood in %.

Worked examples follow.
- Cc1ccc(Nc2ncc(C(F)(F)F)cc2Cl)cc1-c1c(O)c(C)nn(C)c1=O: 10
- CCc1nn(C)c(=O)c(-c2cc(Oc3nc4ccc(Cl)cc4o3)ccc2C)c1O: 30
- CCc1ccc(Oc2ncc(C(F)(F)F)cc2Cl)cc1-c1c(O)cnn(C)c1=O: 100

Can you share its Growth inhibition rate (%) Corn? I mean this compound: "Cc1ccc(Oc2nc3cccc(Cl)c3o2)cc1-c1c(O)cnn(C)c1=O" 10

Can you share its Growth inhibition rate (%) Corn? I mean this compound: "CC(=O)Oc1c(C)nn(C)c(=O)c1-c1cc(Oc2cc(C(F)(F)F)c(C(F)(F)F)cn2)ccc1C" 100

Can you share its Growth inhibition rate (%) Corn? I mean this compound: "Cc1ccc(Oc2nc3ccc(Cl)cc3o2)cc1-c1c(O)cnn(C(C)C)c1=O" 80

Can you share its Growth inhibition rate (%) Corn? I mean this compound: "Cc1nn(C)c(=O)c(-c2cc(Oc3ncc(C(F)(F)F)cc3Cl)ccc2OC(F)(F)F)c1O" 100

Can you share its Growth inhibition rate (%) Corn? I mean this compound: "COCCOCOc1c(C)nn(C)c(=O)c1-c1cc(Oc2ncc(C(F)(F)F)cc2Cl)ccc1C" 93

----------
Test system: corn (Zea mays L.)
Assay: Test Example 1: foliar treatment, growth inhibition rate on 14th day
Format: in vivo
Conditions: active ingredient amount 31 g/ha, 14th day after application
The following compounds are listed with their measured Growth inhibition rate (%) Corn values.
Provide only the numeric value, understood in %.

* Cc1ccc(Oc2ncc(C(F)(F)F)cc2F)cc1-c1c(O)c(C)nn(C)c1=O | 75
* CC(=O)Oc1c(C)nn(C)c(=O)c1-c1cc(Oc2nc3cc(Cl)ccc3o2)ccc1C | 65
* Cc1ccc(Oc2nc3cc(Br)ccc3o2)cc1-c1c(O)cnn(C)c1=O | 50

With those in mind, consider the next compound.
Record lookup: for corn (Zea mays L.), what Growth inhibition rate (%) Corn belongs to "Cc1ccc(Oc2cnc3cc(Cl)ccc3n2)cc1-c1c(OCc2ccccc2)c(C)nn(C)c1=O" ? 20
